# System: MCF7 cells
# condition-summary: 24 h
Ends that are not written are not given here.
recorded-metric: pIC50
// pIC50: -log10(molar conc.)

Known pIC50 results, listed for orientation:
# substance, experimental-value
data = [
    ("TLLTAIVKLFLK-NH2 [peptide 57]", 4.60),
    ("LLQWLLKRLKAK-NH2 [peptide 11]", 4.94),
]

// below: pIC50 requested for another substance
Query: Fill in: pIC50 of IILKKLLDFILK-NH2 [peptide 29] is ___
Result: 4.79

* * *

# Tested on: PBMC
# condition-summary: 12.5 µM
Listed here are molecules together with their documented Average (percentage cell inhibition), Mastoparan PBMC.
Please state the figure in %; there is no need to write the unit.

# molecule, study-system, unit-label, experimental-value
measured = [
    ("CC[C@H](C)[C@H](N)C(=O)N[C@@H](CC(N)=O)C(=O)N[C@@H](CC(C)C)C(=O)N[C@@H](CCCCN)C(=O)N[C@@H](C)C(=O)N[C@@H](CC(C)C)C(=O)N[C@@H](C)C(=O)N[C@@H](C)C(=O)N[C@@H](CCC(=O)O)C(=O)N[C@@H](C)C(=O)N[C@@H](CCCCN)C(=O)N[C@@H](CCCCN)C(=O)N[C@H](C(=O)N[C@@H](CC(C)C)C(N)=O)[C@@H](C)CC [E9]", "PBMC", "%", 0.4268),
    ("CC[C@H](C)[C@H](N)C(=O)N[C@@H](CC(N)=O)C(=O)N[C@@H](CC(C)C)C(=O)N[C@@H](CCCCN)C(=O)N[C@@H](C)C(=O)N[C@@H](CC(C)C)C(=O)N[C@@H](C)C(=O)N[C@@H](CO)C(=O)N[C@@H](CC(C)C)C(=O)N[C@@H](C)C(=O)N[C@@H](CCCCN)C(=O)N[C@@H](CCCCN)C(=O)N[C@H](C(=O)N[C@@H](CC(C)C)C(N)=O)[C@@H](C)CC [S8]", "PBMC", "%", -6.033),
]

Query: Fill in: Average (percentage cell inhibition), Mastoparan PBMC of CC[C@H](C)[C@H](N)C(=O)N[C@@H](CC(N)=O)C(=O)N[C@@H](CC(C)C)C(=O)N[C@@H](CCCCN)C(=O)N[C@@H](C)C(=O)N[C@@H](CC(C)C)C(=O)N[C@@H](C)C(=O)N[C@@H](C)C(=O)N[C@@H](CC(C)C)C(=O)N[C@@H](C)C(=O)N[C@@H](CCCCN)C(=O)N[C@@H](CCCCN)C(=O)N[C@H](C(=O)NCC(N)=O)[C@@H](C)CC [G14] is ___
Result: 3.069

* * *

# Tested on: PBMC
# condition-summary: 12.5 µM
recorded-metric: Average (percentage cell inhibition), Mastoparan PBMC (%)
Please state the figure in %; there is no need to write the unit.

# compound, unit-label, experimental-value
rows = [
    ("CC[C@H](C)[C@H](N)C(=O)N[C@@H](CC(N)=O)C(=O)N[C@@H](CC(C)C)C(=O)N[C@@H](CCCCN)C(=O)N[C@H](C(=O)N[C@@H](CC(C)C)C(=O)N[C@@H](C)C(=O)N[C@@H](C)C(=O)N[C@@H](CC(C)C)C(=O)N[C@@H](C)C(=O)N[C@@H](CCCCN)C(=O)N[C@@H](CCCCN)C(=O)N[C@H](C(=O)N[C@@H](CC(C)C)C(N)=O)[C@@H](C)CC)C(C)C [V5]", "%", 6.235),
]

Query: Entry CC[C@H](C)[C@H](N)C(=O)N[C@@H](CC(N)=O)C(=O)N[C@@H](CC(C)C)C(=O)N[C@@H](CCCCN)C(=O)N[C@@H](C)C(=O)NCC(=O)N[C@@H](C)C(=O)N[C@@H](C)C(=O)N[C@@H](CC(C)C)C(=O)N[C@@H](C)C(=O)N[C@@H](CCCCN)C(=O)N[C@@H](CCCCN)C(=O)N[C@H](C(=O)N[C@@H](CC(C)C)C(N)=O)[C@@H](C)CC [G6] , system PBMC: what Average (percentage cell inhibition), Mastoparan PBMC was measured?
Result: 3.256

Query: Entry CC[C@H](C)[C@H](N)C(=O)N[C@@H](CC(N)=O)C(=O)N[C@@H](Cc1ccc(O)cc1)C(=O)N[C@@H](CCCCN)C(=O)N[C@@H](C)C(=O)N[C@@H](CC(C)C)C(=O)N[C@@H](C)C(=O)N[C@@H](C)C(=O)N[C@@H](CC(C)C)C(=O)N[C@@H](C)C(=O)N[C@@H](CCCCN)C(=O)N[C@@H](CCCCN)C(=O)N[C@H](C(=O)N[C@@H](CC(C)C)C(N)=O)[C@@H](C)CC [Y3] , system PBMC: what Average (percentage cell inhibition), Mastoparan PBMC was measured?
Result: 5.097

Query: Entry CC[C@H](C)[C@H](N)C(=O)N[C@@H](CC(N)=O)C(=O)N[C@@H](CC(C)C)C(=O)N[C@@H](CCCCN)C(=O)N[C@@H](C)C(=O)N[C@@H](CC(C)C)C(=O)N[C@@H](C)C(=O)N[C@@H](C)C(=O)N[C@@H](CC(C)C)C(=O)N[C@@H](C)C(=O)N[C@@H](CCCCN)C(=O)N[C@H](C(=O)N[C@H](C(=O)N[C@@H](CC(C)C)C(N)=O)[C@@H](C)CC)[C@@H](C)CC [I12] , system PBMC: what Average (percentage cell inhibition), Mastoparan PBMC was measured?
Result: 20.8332

Query: Entry CC[C@H](C)[C@H](N)C(=O)N[C@@H](CC(N)=O)C(=O)N[C@@H](CC(C)C)C(=O)N[C@@H](CCCCN)C(=O)N[C@@H](Cc1c[nH]cn1)C(=O)N[C@@H](CC(C)C)C(=O)N[C@@H](C)C(=O)N[C@@H](C)C(=O)N[C@@H](CC(C)C)C(=O)N[C@@H](C)C(=O)N[C@@H](CCCCN)C(=O)N[C@@H](CCCCN)C(=O)N[C@H](C(=O)N[C@@H](CC(C)C)C(N)=O)[C@@H](C)CC [H5] , system PBMC: what Average (percentage cell inhibition), Mastoparan PBMC was measured?
Result: 3.516

Query: Entry CC[C@H](C)[C@H](N)C(=O)N[C@@H](CC(N)=O)C(=O)N[C@@H](CC(C)C)C(=O)N[C@@H](CCCCN)C(=O)N[C@@H](C)C(=O)N[C@@H](CC(C)C)C(=O)N[C@@H](Cc1ccc(O)cc1)C(=O)N[C@@H](C)C(=O)N[C@@H](CC(C)C)C(=O)N[C@@H](C)C(=O)N[C@@H](CCCCN)C(=O)N[C@@H](CCCCN)C(=O)N[C@H](C(=O)N[C@@H](CC(C)C)C(N)=O)[C@@H](C)CC [Y7] , system PBMC: what Average (percentage cell inhibition), Mastoparan PBMC was measured?
Result: 16.9599

Query: Entry CC[C@H](C)[C@H](N)C(=O)N[C@@H](CC(N)=O)C(=O)N[C@@H](CC(C)C)C(=O)N[C@@H](CCCCN)C(=O)N[C@@H](C)C(=O)N[C@@H](CC(C)C)C(=O)N[C@@H](C)C(=O)N[C@@H](C)C(=O)N[C@@H](CC(C)C)C(=O)N[C@@H](CO)C(=O)N[C@@H](CCCCN)C(=O)N[C@@H](CCCCN)C(=O)N[C@H](C(=O)N[C@@H](CC(C)C)C(N)=O)[C@@H](C)CC [S10] , system PBMC: what Average (percentage cell inhibition), Mastoparan PBMC was measured?
Result: 1.271

Query: Entry CC[C@H](C)[C@H](N)C(=O)N[C@@H](CC(N)=O)C(=O)N[C@@H](CC(C)C)C(=O)N[C@@H](CCCCN)C(=O)N[C@@H](C)C(=O)N[C@@H](CC(C)C)C(=O)N[C@@H](C)C(=O)N[C@@H](C)C(=O)N[C@@H](CC(C)C)C(=O)N[C@@H](C)C(=O)N[C@@H](CCCCN)C(=O)N[C@@H](CCCCN)C(=O)N[C@H](C(=O)N1CCC[C@H]1C(N)=O)[C@@H](C)CC [P14] , system PBMC: what Average (percentage cell inhibition), Mastoparan PBMC was measured?
Result: -11.4473

Query: Entry CC[C@H](C)[C@H](N)C(=O)N[C@@H](CC(N)=O)C(=O)N[C@@H](CC(C)C)C(=O)N[C@@H](CCCCN)C(=O)N[C@@H](C)C(=O)N[C@@H](CC(C)C)C(=O)N[C@@H](C)C(=O)N[C@@H](C)C(=O)N[C@@H](CC(C)C)C(=O)N[C@@H](C)C(=O)N[C@@H](CCCCN)C(=O)N[C@@H](C)C(=O)N[C@H](C(=O)N[C@@H](CC(C)C)C(N)=O)[C@@H](C)CC [A12] , system PBMC: what Average (percentage cell inhibition), Mastoparan PBMC was measured?
Result: 17.0691

Query: Entry CC[C@H](C)[C@H](N)C(=O)N[C@@H](CC(N)=O)C(=O)N[C@@H](CC(C)C)C(=O)N[C@@H](CCCCN)C(=O)N[C@@H](C)C(=O)N[C@@H](CC(C)C)C(=O)N[C@@H](C)C(=O)N[C@@H](C)C(=O)N[C@@H](CCC(N)=O)C(=O)N[C@@H](C)C(=O)N[C@@H](CCCCN)C(=O)N[C@@H](CCCCN)C(=O)N[C@H](C(=O)N[C@@H](CC(C)C)C(N)=O)[C@@H](C)CC [Q9] , system PBMC: what Average (percentage cell inhibition), Mastoparan PBMC was measured?
Result: 2.087

Query: Entry CC[C@H](C)[C@H](N)C(=O)N[C@@H](CC(N)=O)C(=O)N[C@@H](CC(C)C)C(=O)N[C@@H](CCCCN)C(=O)N[C@@H](CCCCN)C(=O)N[C@@H](CC(C)C)C(=O)N[C@@H](C)C(=O)N[C@@H](C)C(=O)N[C@@H](CC(C)C)C(=O)N[C@@H](C)C(=O)N[C@@H](CCCCN)C(=O)N[C@@H](CCCCN)C(=O)N[C@H](C(=O)N[C@@H](CC(C)C)C(N)=O)[C@@H](C)CC [K5] , system PBMC: what Average (percentage cell inhibition), Mastoparan PBMC was measured?
Result: 10.3023
